Record form. Attribute: GI50. Fill in for each entry.
- System: SF-268
- Method Description: NCI tumour cell line growth inhibition, 48 h
Active and inactive are the calls of the source. Rule as the data show it: active = GI50 up to about 1.1 µM and inactive = higher.

Here is how some compounds turned out for GI50.
# Compound, GI50
measured = [
    ("O=c1[nH]c2nc3ccccc3c(=O)n2/c1=C/c1ccc(Cl)cc1", "26.9 µM (inactive)"),
    ("CCc1n[nH]c(=O)n1-c1ccc2ccccc2c1", "> 100 µM (inactive)"),
    ("CC(C)(CCCCC(C)(C)NCC1COc2ccccc2O1)NCC1COc2ccccc2O1 (stereo not given)", "5.45 µM (inactive)"),
    ("CCC(=O)C(C)C(=O)C(=O)C(=O)OC (stereo not given)", "> 100 µM (inactive)"),
    ("N=C(N)N/N=C/c1c(-c2ccc([N+](=O)[O-])cc2)nc2sccn12", "1.85 µM (inactive)"),
]

Below is a list of compounds. For each, state its recorded GI50.
1. CC1(C)COP(=S)(c2ccccn2)O[C@@H]1c1ccccc1 (stereo not given in full)
2. COC(=O)C(=O)C(C(C)=O)C(=O)NCc1ccc(OC)c(OC)c1 (stereo not given)
3. CC(C)(C)c1cc(-c2cc(C(C)(C)C)n(-c3ccccc3)n2)nn1-c1ccccc1
4. Cc1nc(N(C(C)C)C(C)C)c(C(C)C)o1
5. COc1ccc(C2Oc3c(c(O)cc4c3[C@H](c3ccc(O)cc3O)[C@H](O)C(c3ccc(O)c(O)c3)O4)C[C@@H]2O)cc1O (stereo not given in full)

1: > 100 µM (inactive); 2: > 100 µM (inactive); 3: > 100 µM (inactive); 4: > 100 µM (inactive); 5: > 100 µM (inactive)

---

- Test system: SF-539
- Method Description: NCI tumour cell line growth inhibition, 48 h
The source made the active and inactive calls. Cut-off read from the data, not from the text of the source: active = GI50 up to about 1.1 µM and inactive = higher.
Record form. Attribute: GI50. Fill in for each entry.

Here is how some molecules turned out for GI50.
# Molecule, GI50
measured = [
    ("CN1CCN(P2(=S)Oc3ccc4ccccc4c3-c3c(ccc4ccccc34)O2)CC1", "21.5 µM (inactive)"),
    ("Oc1ccc2ccccc2c1/N=N/c1cccc2ccccc12", "24.3 µM (inactive)"),
    ("COC1=C2CC(C)CC(OC)C(O)C(C)/C=C(\\C)C(OC(N)=O)C(OC)/C=C\\C=C(/C)C(=O)NC(=C(/C=N/C(C)(C)C)C1=O)C2=O (stereo not given)", "1.66 µM (inactive)"),
    ("O=C1CCCC1C(O)(C(F)(F)F)C(F)(F)F (stereo not given)", "> 100 µM (inactive)"),
    ("O=C1CCCC/C(=C/c2ccccc2)N1", "> 100 µM (inactive)"),
    ("CCNC1=C(NC(=O)CC)C(=O)c2ccccc2C1=O", "> 100 µM (inactive)"),
    ("Nc1ccc(Sc2nnc(N)s2)cc1", "> 100 µM (inactive)"),
    ("COc1ccc(C2Oc3c(c(O)cc4c3[C@H](c3ccc(O)cc3O)[C@H](O)C(c3ccc(O)c(O)c3)O4)C[C@@H]2O)cc1O (stereo not given in full)", "> 100 µM (inactive)"),
]

Below is a list of molecules. For each, state its recorded GI50.
1. O/N=N\c1nc(-c2ccccn2)nc2ccccc12
2. O=C(COc1ccc(Cl)c(Cl)c1)N(Cc1ccccc1)Cc1ccc[n+](Cc2ccc(Cl)cc2S(=O)(=O)F)c1

1: 17.1 µM (inactive); 2: 12.9 µM (inactive)

---

Record form. Attribute: GI50. Fill in for each entry.
- Tested on: NCI/ADR-RES
- Method Description: NCI tumour cell line growth inhibition, 48 h
The source made the active and inactive calls. No stated cut-off is given here; in the data, active = GI50 up to about 1.1 µM and inactive = higher.

# Compound, Assay Metric, Val
records = [
    ("Cc1ccc2c(O)c3c(cc2c1)C(=O)c1c2c(cc(O)c1C3=O)C1(C)OC(O2)C(O)C(N(C)C)C1O (configuration not stated)", "GI50", "1.4 µM (inactive)"),
    ("COc1ccc(/N=C/N(C)C)c(C)c1", "GI50", "44.7 µM (inactive)"),
]

Below is a list of compounds. For each, state its recorded GI50.
1. Cc1ccc(S(=O)(=O)c2ccsc2NC(=O)c2ccccc2)cc1
2. COC(=O)C1=C(O)C(C(=O)OC)[C@]2(O)[C@@H](C(=O)OC)[C@H]1[C@H](C)[C@@H](c1ccccc1)[C@@H]2C(=O)OC (some centres not stated)
3. O=C(NCCCN(CCCCN(CCCNC(=O)C(F)(F)F)CCCc1ccccc1)CCCc1ccccc1)C(F)(F)F
4. C[C@H]1CN[C@@H]2[C@@H](C)[C@H]3[C@@H](C[C@H]4[C@@H]5CC[C@H]6C[C@@H](N)CC[C@]6(C)[C@H]5CC[C@]34C)O[C@@]2(O)C1
5. Cc1cc(Nc2ccc(NS(C)(=O)=O)cc2)c2c(ccc3[nH]ccc32)n1

1: 35.2 µM (inactive); 2: 40.7 µM (inactive); 3: 3.45 µM (inactive); 4: 2.54 µM (inactive); 5: > 100 µM (inactive)

---

- Test system: MDA-N
- Method Description: NCI tumour cell line growth inhibition, 48 h
Active and inactive are the calls of the source. Rule as the data show it: active = GI50 up to about 1.1 µM and inactive = higher.
Hi there, use one of these labels in your reply, thanks! active, inactive

# Molecule, Measurement Target, Classification
rows = [
    ("Clc1ccc(Cc2nc3ccccc3nc2-c2cccc(Cl)c2)cc1", "MDA-N", "inactive"),
]

Assay outcome for CC(C)c1ccccc1[S+]([O-])c1ccccc1C(C)(C)O (stereo not given) : what was it?
inactive

Assay outcome for CCOC(=O)CNC(=O)C(CSC(=O)N(O)c1ccc(Cl)cc1)NC(=O)CCC(N)C(=O)OCC (stereo not given) : what was it?
inactive

Assay outcome for O=C(NCCCN(CCCCN(CCCNC(=O)C(F)(F)F)CCCc1ccccc1)CCCc1ccccc1)C(F)(F)F : what was it?
inactive

Assay outcome for COC1=CC(=O)c2c(O)c3c(c(O)c2C1=O)CC(C)(O)OC3 (stereo not given) [FUSARUBIN] : what was it?
inactive

Assay outcome for CC1=C(O)C(=O)C2=C(C1=O)[C@@H]([C@@H](C)C/C=C/C(C)(C)O)CC[C@@H]2C : what was it?
inactive

Assay outcome for CC1(C)CCCCCCCCCC(C)(CCCCCCCCCCCCO)C1=O (stereo not given) : what was it?
inactive

Assay outcome for O=C1N/C(=N/N=C/c2c[nH]c3ccccc23)N/C1=C\c1cccs1 : what was it?
inactive

Assay outcome for CC(=O)NC1C(OCc2ccccc2)OC(CO)C(O)C1OCC(=O)NC(C(=O)NC(CCC(=O)NCCCCCC(=O)Nc1ccc2c(c1)CN1C(=O)c3ccccc3C1=N2)C(N)=O)C(C)C (stereo not given) : what was it?
inactive

---

- Tested on: U-251
- Method Description: NCI tumour cell line growth inhibition, 48 h
Activity calls are given as the source filed them. Rule as the data show it: active = GI50 up to about 1.1 µM and inactive = higher.
Hi there, use one of these labels in your reply, thanks! y (active), n (inactive)

# Compound, Classification
rows = [
    ("N#Cc1c(-c2ccc(Cl)cc2)[nH]c(=O)n(C2OC(CO)C(O)C(O)C2O)c1=O (stereo not given)", "n"),
    ("Cc1noc(NC(=O)Nc2ccccc2F)c1C#N", "n"),
    ("Cc1ccc2c(c1)C(=O)/C(=C\\c1ccccc1)CCS2(=O)=O", "n"),
    ("CC(=O)OC1(C)CC(C)C(=O)C(C(O)CC2CC(=O)NC(=O)C2)C1 (stereo not given)", "y"),
    ("COC(=O)[C@@]12CSC[C@]1(C(=O)OC)N[C@@H](c1ccccc1O)C2", "n"),
    ("CNc1ccc2c(c1)Cc1ccccc1-2", "n"),
    ("[N-]=[N+]=Nc1nnc(CCCCc2nnc(N=[N+]=[N-])o2)o1", "n"),
    ("CN1CCCc2nc3ccccc3n2C1", "n"),
]

Assay outcome for OC(c1cc2ccccc2o1)c1cc2ccccc2s1 (stereo not given) : what was it?
n

Assay outcome for CCCCCCCCCCCCCCCCP(=O)(O)OP(=O)(O)OCC1OC(n2cnc3c(N)ncnc32)C(O)C1O (stereo not given) : what was it?
n

---

- Tested on: OVCAR-8
- Method Description: NCI tumour cell line growth inhibition, 48 h
Active and inactive are the calls of the source. Cut-off read from the data, not from the text of the source: active = GI50 up to about 1.1 µM and inactive = higher.
Record form. Attribute: GI50. Fill in for each entry.

Here is how some molecules turned out for GI50.
# Molecule, Val
data = [
    ("COc1ccc(N[S+]([O-])c2ccc(OC)cc2)cc1 (stereo not given)", "82.2 µM (inactive)"),
    ("CNS(=O)(=O)NN(C)S(=O)(=O)c1ccc(F)cc1", "> 100 µM (inactive)"),
    ("Clc1ccc(COC(Cn2ccnc2)c2ccc(Cl)cc2Cl)cc1 (stereo not given) [ECONAZOLE]", "11.4 µM (inactive)"),
    ("O=[N+]([O-])c1ccc2c(c1)c(OCc1ccccc1)nn2Cc1ccccc1", "> 100 µM (inactive)"),
    ("O=C1O/C(=C(\\Br)c2cccc3ccccc23)c2ccccc21", "> 43.7 µM (inactive)"),
    ("CCCCCCC(=O)c1ccc2ccccc2c1O", "41.7 µM (inactive)"),
    ("C=C(C)[C@@H]1CC[C@]2(C(=O)OC)CC[C@]3(C)[C@H](CC[C@@H]4[C@@]5(C)CC[C@H](O)C(C)(C)[C@@H]5CC[C@]43C)[C@@H]12 [METHYL BETULINATE]", "21.5 µM (inactive)"),
    ("CN(C)c1ccc(C(=NN)c2ccc(N(C)C)cc2)cc1", "2.52 µM (inactive)"),
    ("Clc1ccc(Cc2nc3ccccc3nc2-c2cccc(Cl)c2)cc1", "3.56 µM (inactive)"),
]

For the next question, use this molecule.
Item O=C1c2ccccc2N2OC3(N4CCOCC4)CCCC3C12c1ccccc1 (stereo not given) has what recorded GI50?
> 100 µM (inactive)

Provenance of the data: ChEMBL document CHEMBL1201862
